experimental_system: 5-HT2B (Homo sapiens, UniProt P41595)
Sequence (P41595 whole entry, species assumed): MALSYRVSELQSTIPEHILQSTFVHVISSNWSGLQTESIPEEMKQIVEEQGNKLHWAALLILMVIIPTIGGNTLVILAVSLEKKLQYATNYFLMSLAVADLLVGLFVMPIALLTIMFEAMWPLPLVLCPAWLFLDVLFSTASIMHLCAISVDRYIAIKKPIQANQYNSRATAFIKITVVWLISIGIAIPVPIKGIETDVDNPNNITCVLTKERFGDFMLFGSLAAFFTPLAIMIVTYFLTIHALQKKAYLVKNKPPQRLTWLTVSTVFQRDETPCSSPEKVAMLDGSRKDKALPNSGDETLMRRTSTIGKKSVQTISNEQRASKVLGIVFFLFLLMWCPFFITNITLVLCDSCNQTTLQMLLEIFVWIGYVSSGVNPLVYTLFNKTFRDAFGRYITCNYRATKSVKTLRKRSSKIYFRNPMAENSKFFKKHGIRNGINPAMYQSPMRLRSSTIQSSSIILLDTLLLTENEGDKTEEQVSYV
assay_summary: PDSP receptor functional assay
assay_setup: 5-HT2B antagonist
observed_property: IC50

Data request: # assay system 5-HT2B (Homo sapiens, UniProt P41595): give IC50 of COc1cc2c3c(c1OC)-c1ccccc1C[C@H]3N(C)CC2 [nuciferine]
Data returned: 1000 nM

----------
experimental_system: 5-HT6 (Homo sapiens)
Sequence (P50406 whole entry, species assumed): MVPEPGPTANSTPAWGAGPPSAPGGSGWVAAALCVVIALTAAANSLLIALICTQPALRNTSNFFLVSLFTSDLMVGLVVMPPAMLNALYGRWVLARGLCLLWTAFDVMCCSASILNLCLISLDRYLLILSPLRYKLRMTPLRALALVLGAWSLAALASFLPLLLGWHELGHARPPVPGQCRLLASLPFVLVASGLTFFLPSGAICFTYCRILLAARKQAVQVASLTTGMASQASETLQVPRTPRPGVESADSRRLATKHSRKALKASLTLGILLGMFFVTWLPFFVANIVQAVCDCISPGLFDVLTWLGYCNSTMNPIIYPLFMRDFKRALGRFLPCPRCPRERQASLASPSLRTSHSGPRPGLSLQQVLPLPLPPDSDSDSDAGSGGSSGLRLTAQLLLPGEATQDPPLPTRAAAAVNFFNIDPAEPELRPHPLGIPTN
assay_summary: PDSP receptor functional assay
observed_property: EC50
Record the result as a number with its unit.

Data request: Provide EC50 value for the following compound: COc1cc2c3c(c1OC)-c1ccccc1C[C@H]3N(C)CC2
Data returned: 700 nM

----------
experimental_system: 5-HT1A (Homo sapiens)
Construct: expressed in transfected cells
Sequence (P08908 whole entry, species assumed): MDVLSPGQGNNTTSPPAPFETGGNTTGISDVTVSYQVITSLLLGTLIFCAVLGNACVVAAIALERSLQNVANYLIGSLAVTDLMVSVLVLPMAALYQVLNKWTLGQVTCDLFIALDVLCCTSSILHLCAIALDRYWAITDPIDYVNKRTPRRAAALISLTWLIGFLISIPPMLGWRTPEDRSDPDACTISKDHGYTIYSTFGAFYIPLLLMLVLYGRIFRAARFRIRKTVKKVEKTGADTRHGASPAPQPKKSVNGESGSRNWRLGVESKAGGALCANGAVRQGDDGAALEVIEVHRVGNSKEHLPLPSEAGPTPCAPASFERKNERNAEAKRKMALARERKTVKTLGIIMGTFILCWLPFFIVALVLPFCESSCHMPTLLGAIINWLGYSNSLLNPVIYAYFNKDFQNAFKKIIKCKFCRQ
assay_summary: PDSP receptor functional assay
Assay type: cell-based
assay_setup: agonist; read-out: Functional EC50
observed_property: EC50
Record the result as a number with its unit.

Data request: Provide EC50 value for the following compound: COc1cc2c3c(c1OC)-c1ccccc1C[C@H]3N(C)CC2
Data returned: 3.23 µM
